These measurements were taken from ChEMBL document CHEMBL1132940.

Here the recorded Ki is given for each entry.
target: GABA-A receptor; alpha-6/beta-3/gamma-2 (Homo sapiens, UniProt P18507+P28472+Q16445); test: Binding affinity for human recombinant gamma-aminobutyric-acid (GABA) A receptor alpha-6-beta-3-gamma-2
Sequence (P18507 whole entry): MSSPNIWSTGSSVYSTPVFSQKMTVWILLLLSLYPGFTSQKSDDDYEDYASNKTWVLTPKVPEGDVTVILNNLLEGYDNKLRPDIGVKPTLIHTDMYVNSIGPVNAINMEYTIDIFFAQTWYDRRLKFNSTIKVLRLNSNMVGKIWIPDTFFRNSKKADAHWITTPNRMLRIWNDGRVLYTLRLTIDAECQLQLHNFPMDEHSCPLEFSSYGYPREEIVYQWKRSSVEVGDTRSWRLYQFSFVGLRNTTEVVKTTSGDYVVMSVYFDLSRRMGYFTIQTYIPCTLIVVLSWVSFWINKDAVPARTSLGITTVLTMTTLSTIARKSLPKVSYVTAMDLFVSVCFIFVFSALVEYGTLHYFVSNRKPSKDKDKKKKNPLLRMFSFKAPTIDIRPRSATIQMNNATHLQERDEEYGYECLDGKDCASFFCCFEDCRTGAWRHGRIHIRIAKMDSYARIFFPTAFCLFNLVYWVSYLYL
Sequence (P28472 whole entry): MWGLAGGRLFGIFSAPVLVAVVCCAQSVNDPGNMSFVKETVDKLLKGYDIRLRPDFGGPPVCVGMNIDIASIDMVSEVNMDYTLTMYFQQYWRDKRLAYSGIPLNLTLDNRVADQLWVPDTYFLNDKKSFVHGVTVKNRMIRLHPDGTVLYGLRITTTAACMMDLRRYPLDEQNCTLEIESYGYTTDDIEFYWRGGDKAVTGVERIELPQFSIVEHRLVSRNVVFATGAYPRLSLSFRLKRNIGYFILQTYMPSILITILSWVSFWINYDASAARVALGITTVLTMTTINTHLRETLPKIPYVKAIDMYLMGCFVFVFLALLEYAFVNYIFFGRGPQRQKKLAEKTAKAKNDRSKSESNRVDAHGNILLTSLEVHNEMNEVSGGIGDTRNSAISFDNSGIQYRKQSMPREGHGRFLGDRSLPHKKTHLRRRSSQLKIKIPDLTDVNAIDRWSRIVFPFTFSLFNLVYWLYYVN
Sequence (Q16445 whole entry): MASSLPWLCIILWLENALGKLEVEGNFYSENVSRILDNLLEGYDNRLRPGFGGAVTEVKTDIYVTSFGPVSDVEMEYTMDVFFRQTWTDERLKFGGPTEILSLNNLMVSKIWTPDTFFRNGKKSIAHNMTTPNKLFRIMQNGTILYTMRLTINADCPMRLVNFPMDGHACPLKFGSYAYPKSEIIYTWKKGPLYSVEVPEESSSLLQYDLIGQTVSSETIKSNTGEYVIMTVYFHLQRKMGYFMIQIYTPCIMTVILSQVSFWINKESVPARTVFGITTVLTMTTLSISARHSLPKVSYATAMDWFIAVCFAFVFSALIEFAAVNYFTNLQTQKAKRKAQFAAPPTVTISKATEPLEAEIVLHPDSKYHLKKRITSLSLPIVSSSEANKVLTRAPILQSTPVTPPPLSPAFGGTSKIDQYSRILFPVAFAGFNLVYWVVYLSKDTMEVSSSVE
readout kind: Ki

• O=[N+]([O-])c1ccc2[nH]c3cnc([N+](=O)[O-])cc3c2c1 = > 50000 nM
• Clc1ccc2c(c1)[nH]c1c2ncc2[nH]c3ccccc3c21 = > 10000 nM
• CN1C(=O)CN=C(c2ccccc2)c2cc(C#C[Si](C)(C)C)ccc21 = > 3000 nM
• CC(C)c1nc(-c2ncn3c2CN(C)C(=O)c2c(Cl)cccc2-3)no1 = 227 nM
• COCc1c(SC#N)[nH]cc2nc3ccc(OCc4ccccc4)cc3c1-2 = > 10000 nM
• CN1C(=O)CN=C(c2ccco2)c2cc(Cl)ccc21 = > 300 nM
• O=C1C2C=Nc3ccccc3C2=NN1c1ccccc1 (stereo unspecified) [CGS-8216] = 17 nM
• COc1ccc(-n2nc3c4cc(Cl)ccc4[nH]cc-3c2=O)cc1 = 1.9 nM
• COc1ccc2c(c1)[nH]c1c2ncc2[nH]c3ccccc3c21 = > 10000 nM
• O=C1CN=C(c2ccccc2[N+](=O)[O-])c2cc(Br)ccc2N1 = > 3000 nM
• c1ccc2c(c1)[nH]c1c2ncc2[nH]c3ccccc3c21 = > 1000 nM

###

test: Selectivity ratio of alpha1 beta-3 gamma2 GABA A / BzR and alpha5 beta-3 gamma2 GABA A / BzR
Here the recorded Ratio is given for each entry.
readout kind: Ratio

• CN1Cc2c(C(=O)OC(C)(C)C)ncn2-c2ccc(Cl)cc2C1=O = 26.6
• CCOC(=O)c1ncn2c1CN(C)C(=O)c1cc(C#C[Si](C)(C)C)ccc1-2 = 24.2
• C#Cc1ccc2c(c1)C(=O)N1CC[C@H]1c1c(-c3nc(C(C)C)no3)ncn1-2 = 18
• CCOC(=O)c1ncn2c1CN(C)C(=O)c1cc(CC)ccc1-2 = 13.6
• CCOC(=O)c1ncn2c1CN(C)C(=O)c1ccccc1-2 = 3
• CCOC(=O)c1ncn2c1CN(C)C(=O)c1cc(OCC)ccc1-2 = 12.4
• CN1Cc2c(C(=O)OC(C)(C)C)ncn2-c2ccc(N=C=S)cc2C1=O = 6.8
• CCOC(=O)c1ncn2c1CN(C)C(=O)c1cc(Cl)ccc1-2 = 8
• C#Cc1ccc2c(c1)C(=O)N1CCC[C@H]1c1c(-c3nc(C(C)C)no3)ncn1-2 = 15

###

assay: Selectivity ratio of alpha1 beta-3 gamma2 GABA A / BzR and alpha5 beta-3 gamma2 GABA A / BzR
Binary label based on Ratio with cut-off 50: below gives TRUE, not below gives FALSE.

- C#Cc1ccc2c(c1)C(=O)N(C)Cc1c(C(=O)OCC)ncn1-2: FALSE
- CC#Cc1ccc2c(c1)C(=O)N(C)Cc1c(C(=O)OCC)ncn1-2: TRUE
- C#Cc1ccc2c(c1)C(=O)N1CC[C@H]1c1c(-c3nc(CC)no3)ncn1-2: TRUE
- COc1ccc2c(c1)C(=O)N(C)Cc1c(C(=O)OC(C)(C)C)ncn1-2: TRUE
- CN1Cc2c(C(=O)OC(C)(C)C)ncn2-c2ccc(C#C[Si](C)(C)C)cc2C1=O: FALSE

###

Here the recorded Ki is given for each entry.
biological target: GABA-A receptor; alpha-2/beta-3/gamma-2 (Homo sapiens, UniProt P18507+P28472+P47869); experiment: Binding affinity to human recombinant gamma-aminobutyric-acid (GABA) A receptor alpha-2-beta-3-gamma-2
Sequence (P47869 whole entry, one chain of several): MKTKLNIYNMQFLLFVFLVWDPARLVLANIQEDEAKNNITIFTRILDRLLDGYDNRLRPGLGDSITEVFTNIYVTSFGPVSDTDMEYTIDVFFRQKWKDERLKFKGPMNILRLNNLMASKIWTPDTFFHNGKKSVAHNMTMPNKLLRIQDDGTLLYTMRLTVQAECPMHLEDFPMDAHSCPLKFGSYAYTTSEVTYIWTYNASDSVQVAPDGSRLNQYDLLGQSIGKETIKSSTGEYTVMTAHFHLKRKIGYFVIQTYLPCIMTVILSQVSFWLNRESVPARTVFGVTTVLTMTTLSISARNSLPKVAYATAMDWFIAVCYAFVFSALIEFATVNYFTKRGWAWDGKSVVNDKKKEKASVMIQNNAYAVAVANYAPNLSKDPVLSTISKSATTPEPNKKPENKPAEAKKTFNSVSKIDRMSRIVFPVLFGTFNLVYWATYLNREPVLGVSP
readout kind: Ki

• CN1C(=O)CN=C(c2ccco2)c2cc(Cl)ccc21 = > 0.17 nM
• Clc1cccn2c1nc1c3c4ccccc4nc-3c[nH]c12 = > 3000 nM
• CN1C(=O)CN=C(C2CCC2)c2cc(F)ccc21 = > 300 nM
